tested on: HL-60(TB) leukemia; assay: NCI tumour cell line growth inhibition, 48 h
Reported TGI values are given for each entry in this list.
Reply with just the number (in µM).

Here's what some known entries look like.
smiles_str | measure_unit | TGI
NCCNc1c2c(c(NCCN)c3[nH]ccc13)C(=O)c1ccccc1C2=O | µM | 0.47
CCOC(=O)CC[C@H](NC(=O)[C@H](N)Cc1ccc(N(CCCl)CCCl)cc1)C(=O)OCC | µM | 36.6

Let us examine a further case.
q: Provide the documented TGI with HL-60(TB) leukemia as the system for `C=CCCCCOc1ccccc1-c1cnc(OCCCCC=C)n1C`
a: 7.14

Values from PubChem BioAssay (NCI)
